Molecular target: CIC-1 channels (Rattus norvegicus)
Experiment: Electrophysiological measurement of compound inhibition of CIC-1 in rat muscle (Gm, three micro-electrodes technique)
Conditions: reduction of Gm in fibres of whole rat soleus muscles, approx. 30°C; n = number of experiments
Source text: Table 2: Inhibition of CIC-1 ion channel using compounds of the invention
Measured pEC50, listed per entry.
Scale note: pEC50 = -log10(concentration in M).

SMILES_CODE | STUDY_TARGET | pEC50
[2H][C@@](CC)(Oc1ccc(Br)cc1)C(=O)O | CIC-1 channels (Rattus norvegicus) | 5.12
C#CC[C@H](Oc1ccc(Br)cc1Br)C(=O)O | CIC-1 channels (Rattus norvegicus) | 5.14
CC[C@H](Oc1ccc(Br)cc1I)C(=O)O | CIC-1 channels (Rattus norvegicus) | 5.64
CC(C)[C@H](Oc1ccc(Br)cc1F)C(=O)O | CIC-1 channels (Rattus norvegicus) | 5.35
CC[C@H](Oc1ccc(Br)cc1Cl)C(=O)O | CIC-1 channels (Rattus norvegicus) | 5.12
CC(C)[C@H](Oc1ccc(Br)cc1I)C(=O)O | CIC-1 channels (Rattus norvegicus) | 5.23
CC(C)[C@H](Oc1ccc(Br)cc1Cl)C(=O)O | CIC-1 channels (Rattus norvegicus) | 5.14
CC[C@H](Oc1ccc(Br)cc1F)C(=O)O | CIC-1 channels (Rattus norvegicus) | 5.20
C[C@@H](F)[C@H](Oc1ccc(Br)cc1)C(=O)O | CIC-1 channels (Rattus norvegicus) | 4.92

// query Form field: reported pEC50 of O=C(O)[C@@H](Oc1ccc(Br)cc1F)C1CCC1
// result 5.05

----------
Target: human CIC-1 channels (Homo sapiens, UniProt P35523)
Construct: host or cells: CHO cells constitutively expressing human ClC-1
Sequence (P35523 whole entry): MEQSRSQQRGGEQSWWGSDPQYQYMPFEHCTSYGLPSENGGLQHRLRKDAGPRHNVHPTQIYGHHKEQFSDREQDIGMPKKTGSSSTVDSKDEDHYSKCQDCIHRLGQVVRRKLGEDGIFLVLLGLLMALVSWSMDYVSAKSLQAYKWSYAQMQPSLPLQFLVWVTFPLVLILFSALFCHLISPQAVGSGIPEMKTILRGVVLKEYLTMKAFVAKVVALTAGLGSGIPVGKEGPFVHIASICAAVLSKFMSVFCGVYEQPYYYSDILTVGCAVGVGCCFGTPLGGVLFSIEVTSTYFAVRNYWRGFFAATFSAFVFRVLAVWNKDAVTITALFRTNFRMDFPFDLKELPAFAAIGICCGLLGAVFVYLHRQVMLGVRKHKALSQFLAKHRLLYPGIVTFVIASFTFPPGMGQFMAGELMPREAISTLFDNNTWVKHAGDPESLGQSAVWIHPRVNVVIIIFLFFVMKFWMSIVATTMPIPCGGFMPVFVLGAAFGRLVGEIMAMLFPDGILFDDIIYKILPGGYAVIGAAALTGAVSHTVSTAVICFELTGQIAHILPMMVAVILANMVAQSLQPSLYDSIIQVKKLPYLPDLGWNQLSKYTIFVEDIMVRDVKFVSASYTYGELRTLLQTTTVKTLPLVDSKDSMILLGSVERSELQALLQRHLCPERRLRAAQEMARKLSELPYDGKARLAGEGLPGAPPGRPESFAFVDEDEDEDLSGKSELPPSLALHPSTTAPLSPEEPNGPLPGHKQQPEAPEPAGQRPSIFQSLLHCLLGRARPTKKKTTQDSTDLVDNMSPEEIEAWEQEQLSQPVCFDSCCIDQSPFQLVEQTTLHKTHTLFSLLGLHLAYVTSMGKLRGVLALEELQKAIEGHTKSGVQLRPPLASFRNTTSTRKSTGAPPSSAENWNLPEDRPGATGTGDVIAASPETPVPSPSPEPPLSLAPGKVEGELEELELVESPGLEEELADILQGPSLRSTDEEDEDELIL
Test: Automated patch-clamp on human CIC-1 expressed in CHO cells
Assay type: cell-based
Settings: difference in half activation voltage, compound added intracellularly vs control cell patches; positive shift = CIC-1 inhibition
MEASURED_QUANTITY: ΔV1/2
Number first, unit second.

// query Which value of ΔV1/2 has been reported for C#CC[C@H](Oc1ccc(Br)cc1F)C(=O)O in the records?
// result 32.6 mV

// query Which ΔV1/2 is listed for O=C(O)[C@H](CCF)Oc1ccc(Br)cc1 ?
// result 16.4 mV

// query What value of ΔV1/2 has been reported for the following compound? O=C(O)[C@H](CF)Oc1ccc(Br)cc1
// result 19.7 mV

// query # input compound: C[C@@H](F)[C@H](Oc1ccc(Br)cc1F)C(=O)O ; wanted: its ΔV1/2
// result 10.3 mV

// query Recorded ΔV1/2 of [2H][C@@](CC)(Oc1ccc(Br)cc1)C(=O)O , please.
// result 20.0 mV

// query Tell me the measured ΔV1/2 of [2H]c1cc(Br)cc([2H])c1O[C@@H](C)C(=O)O , please.
// result 13.0 mV

// query Could you share which ΔV1/2 value was measured for CC[C@H](Oc1ccc(Br)cc1F)C(=O)O ?
// result 28.2 mV

// query Quick one: ΔV1/2 for C[C@H](Oc1ccc(Br)cc1Br)C(=O)O ?
// result 5.19 mV

// query Can you share its ΔV1/2? I mean this compound: C#CC[C@H](Oc1ccc(Br)cc1Br)C(=O)O
// result 27.4 mV

// query Entry C[C@H](Oc1ccc(Br)cc1I)C(=O)O has what ΔV1/2?
// result 9.4 mV

----------
Target: CIC-1 channels (Rattus norvegicus)
Assay: Electrophysiological measurement of compound inhibition of CIC-1 in rat muscle (Gm, three micro-electrodes technique)
Details: reduction of Gm in fibres of whole rat soleus muscles, approx. 30°C; n = number of experiments
From the text: Table 2: Inhibition of CIC-1 ion channel using compounds of the invention
MEASURED_QUANTITY: pEC50
FYI, pEC50 means -log10 of a concentration in mol per litre.

SMILES_CODE | pEC50
O=C(O)[C@@H](Oc1ccc(Br)cc1Cl)C1CCC1 | 5.00

// query // lookup pEC50 for COC[C@H](Oc1ccc(Br)cc1Br)C(=O)O
// result 5.40

// query Could you tell me which pEC50 is on file for O=C(O)[C@H](CF)Oc1ccc(Br)cc1 ?
// result 5.42

// query Need pEC50 of C[C@@H](F)[C@H](Oc1ccc(Br)cc1F)C(=O)O , thanks.
// result 4.90

// query Consider the compound shown here: C[C@H](Oc1ccc(Br)cc1F)C(=O)O What is its recorded pEC50?
// result 5.14

----------
Listed compounds paired with reported ΔV1/2
Molecular target: human CIC-1 channels (Homo sapiens)
Construct: host or cells: CHO cells constitutively expressing human ClC-1
Experiment: Automated patch-clamp on human CIC-1 expressed in CHO cells
Format: cell-based
Details: difference in half activation voltage, compound added intracellularly vs control cell patches; positive shift = CIC-1 inhibition
Just the number please, in mV, no unit attached.

Answered examples (3):
COMPOUND | STUDY_TARGET | MEASURED_QUANTITY | OBS_VALUE
C#CC[C@H](Oc1ccc(Br)cc1Cl)C(=O)O [Compound A-67] | human CIC-1 channels (Homo sapiens) | ΔV1/2 | 37.8
O=C(O)[C@@H](Oc1ccc(Br)cc1F)C(F)F [Compound A-9] | human CIC-1 channels (Homo sapiens) | ΔV1/2 | 15.2
C[C@H](Oc1ccc(Cl)cc1F)C(=O)O [Compound A-38] | human CIC-1 channels (Homo sapiens) | ΔV1/2 | 17.4

// query Form field: ΔV1/2 recorded for [2H]CC([2H])[C@H](Oc1ccc(Br)cc1)C(=O)O (stereo partly drawn) [Compound A-76] with human CIC-1 channels (Homo sapiens) (enter value)
// result 26.2

// query Hi! What's the reported ΔV1/2 for COC[C@H](Oc1ccc(Br)cc1Br)C(=O)O [Compound A-74] on human CIC-1 channels (Homo sapiens)?
// result 10.4

// query # returns recorded ΔV1/2 (system: human CIC-1 channels (Homo sapiens)) for O=C(O)[C@H](CCF)Oc1ccc(Br)cc1F [Compound A-85]
// result 12.5

// query Please provide the recorded ΔV1/2 for [2H][C@@](CF)(Oc1ccc(Br)cc1)C(=O)O [Compound A-82] , tested on human CIC-1 channels (Homo sapiens).
// result 19.0

// query Recall the recorded ΔV1/2 for CC(C)[C@H](Oc1ccc(Br)cc1F)C(=O)O [Compound A-27] with human CIC-1 channels (Homo sapiens) and state it.
// result 20.2

// query Tell me reported ΔV1/2 for O=C(O)[C@@H](Oc1ccc(Br)cc1F)C1CC1 [Compound A-89] , tested with human CIC-1 channels (Homo sapiens).
// result 10.3

----------
Recorded EC50, one value per entry.
Molecular target: CIC-1 channels (Rattus norvegicus, UniProt P35524)
Sequence (P35524 whole entry): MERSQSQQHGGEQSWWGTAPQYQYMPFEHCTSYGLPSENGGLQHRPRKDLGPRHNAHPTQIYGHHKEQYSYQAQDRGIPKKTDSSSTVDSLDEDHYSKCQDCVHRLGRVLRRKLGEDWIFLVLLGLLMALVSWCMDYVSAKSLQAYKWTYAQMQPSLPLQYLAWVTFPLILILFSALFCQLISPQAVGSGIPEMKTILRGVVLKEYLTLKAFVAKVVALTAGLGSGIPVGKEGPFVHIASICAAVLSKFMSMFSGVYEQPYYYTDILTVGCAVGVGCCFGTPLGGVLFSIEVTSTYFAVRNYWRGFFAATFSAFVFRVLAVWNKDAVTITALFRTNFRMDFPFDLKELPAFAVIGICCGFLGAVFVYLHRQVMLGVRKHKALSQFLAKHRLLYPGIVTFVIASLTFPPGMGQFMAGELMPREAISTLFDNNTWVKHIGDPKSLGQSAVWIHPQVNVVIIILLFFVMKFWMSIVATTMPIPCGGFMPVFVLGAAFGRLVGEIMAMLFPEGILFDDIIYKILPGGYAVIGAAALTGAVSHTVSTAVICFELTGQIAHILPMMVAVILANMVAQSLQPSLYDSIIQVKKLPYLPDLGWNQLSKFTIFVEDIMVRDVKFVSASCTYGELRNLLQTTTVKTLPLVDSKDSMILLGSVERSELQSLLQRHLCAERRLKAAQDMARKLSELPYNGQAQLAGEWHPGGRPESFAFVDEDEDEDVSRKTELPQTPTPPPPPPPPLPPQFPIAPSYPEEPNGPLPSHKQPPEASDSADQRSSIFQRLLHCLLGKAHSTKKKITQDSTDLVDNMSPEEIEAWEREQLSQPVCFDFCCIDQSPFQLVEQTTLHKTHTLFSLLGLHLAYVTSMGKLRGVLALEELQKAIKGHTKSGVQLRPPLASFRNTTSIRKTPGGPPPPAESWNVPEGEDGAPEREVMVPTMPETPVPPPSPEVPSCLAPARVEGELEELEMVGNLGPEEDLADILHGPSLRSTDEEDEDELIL
Test: Electrophysiological measurement of compound inhibition of CIC-1 in rat muscle (Gm, three micro-electrodes technique)
Settings: reduction of Gm in fibres of whole rat soleus muscles, approx. 30°C; n = number of experiments
State the answer as a number, implicitly in µM.

SMILES_CODE | READING_UNIT | EC50
COC(=O)[C@H](C)Oc1ccc(Cl)cc1 | µM | 6.8

// query Please tell me: EC50 of C[C@H](Oc1ccc(Br)cc1Br)C(=O)O , system CIC-1 channels (Rattus norvegicus, UniProt P35524)?
// result 4.2
